target: human FcγR1A (human) (UniProt P12314); assay: SPR (Biacore T200), antibody amine-coupled on CM5 (~950 RU), receptor as analyte, 25 C
The threshold is 10 RU. Values of Maximum response at 100 nM hFcgammaRIA (RU) beneath it are tagged class 1; values meeting or exceeding it are tagged class 0.

Before answering, review these 2 worked examples.
# SUBSTANCE, ASSIGNED LABEL
records = [
    ("LALASKPA-IgG1 (L234A/L235A/S267K/P329A) anti-CD3 antibody", "class 1"),
    ("LALAPG-IgG1 (L234A/L235A/P329G) anti-CD3 antibody", "class 0"),
]

Please check: Maximum response at 100 nM hFcgammaRIA (RU) for DAPASK-IgG1 (D265A/P329A/S267K) anti-CD3 antibody , strictly under 10 RU or not?
class 0

Please check: Maximum response at 100 nM hFcgammaRIA (RU) for DANAPA-IgG1 (D265A/N297A/P329A) anti-CD3 antibody , strictly under 10 RU or not?
class 0

Please check: Maximum response at 100 nM hFcgammaRIA (RU) for LALAGA-IgG1 (L234A/L235A/G237A) anti-CD3 antibody , strictly under 10 RU or not?
class 0

Please check: Maximum response at 100 nM hFcgammaRIA (RU) for GADAPA-IgG1 (G237A/D265A/P329A) anti-CD3 antibody , strictly under 10 RU or not?
class 0
